The measured values listed here are drawn from ChEMBL document CHEMBL4433223.

procedure.summary: AUC (0 to 24 hrs) in CD1 mouse at 10 mg/kg, sc by LC/MS/MS analysis
Assay type: ADME, organism-based
Design: dose 10 mg/kg, time < 24 hr, route subcutaneous
protocol.conditions: in vivo

| mol | AUC(0-t) at 24 h |
| --- | --- |
| Cc1ncsc1-c1ccc([C@H](C)NC(=O)[C@@H]2C[C@@H](O)CN2C(=O)[C@@H](NC(=O)COCCCCCOc2ccc(C(=O)N[C@H]3C(C)(C)[C@H](Oc4ccc(C#N)c(Cl)c4)C3(C)C)cc2)C(C)(C)C)cc1 | 15600 to 40200 ng·h/mL |
| Cc1ncsc1-c1ccc(CNC(=O)[C@@H]2C[C@@H](O)CN2C(=O)[C@@H](NC(=O)COCCCOCCN2CCC(c3ccc(N4C(=S)N(c5ccc(C#N)c(C(F)(F)F)c5)C(=O)C4(C)C)cc3)CC2)C(C)(C)C)cc1 | 15600 to 40200 ng·h/mL |
| Cc1ncoc1-c1ccc(CNC(=O)[C@@H]2C[C@@H](O)CN2C(=O)[C@@H](NC(=O)COCc2ccc(OC(=O)N[C@H]3C(C)(C)[C@H](Oc4ccc(C#N)c(Cl)c4)C3(C)C)cc2)C(C)(C)C)cc1 | 15600 to 40200 ng·h/mL |
| Cc1ncsc1-c1ccc(CNC(=O)[C@@H]2C[C@@H](O)CN2C(=O)[C@@H](NC(=O)COCCc2ccc(-c3ccc(C(=O)N[C@H]4C(C)(C)[C@H](Oc5ccc(C#N)c(Cl)c5)C4(C)C)cc3)cc2)C(C)(C)C)cc1 | 15600 to 40200 ng·h/mL |
| Cc1ncsc1-c1ccc(CNC(=O)[C@@H]2C[C@@H](O)CN2C(=O)[C@@H](NC(=O)COCCCOCCCCCOc2ccc(N3C(=O)N(c4ccc(C#N)c(C(F)(F)F)c4)C(=O)C3(C)C)cc2)C(C)(C)C)cc1 | 15600 to 40200 ng·h/mL |
| CC(C)(C)[C@H](NC(=O)COCCCCCOc1ccc(C(=O)N[C@H]2C(C)(C)[C@H](Oc3ccc(C#N)c(Cl)c3)C2(C)C)cc1)C(=O)N1C[C@H](O)C[C@H]1C(=O)NCc1ccc(-c2cncs2)cc1 | 15600 to 40200 ng·h/mL |
